Target: sRANKL (Rattus norvegicus, UniProt Q9ESE2, D175N)
Construct: (1) sRANKL (rat 159-318 aa); His6-sumo (N, cleaved yes); made in house; host or cells: Escherichia coli BL21 (DE3)
Sequence (Q9ESE2 159-318 D175N): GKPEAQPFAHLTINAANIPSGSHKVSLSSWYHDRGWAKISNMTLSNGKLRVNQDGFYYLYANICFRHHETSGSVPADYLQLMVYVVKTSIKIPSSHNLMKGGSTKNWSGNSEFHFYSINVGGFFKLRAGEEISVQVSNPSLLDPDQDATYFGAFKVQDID
Assay: Surface plasmon resonance (SPR) assay
Assay type: binding
Conditions: immobilized sRANKL, 25 °C
Below is a list of entries, each paired with its recorded pKd value.
In textbook form, pKd equals minus log to base ten of the concentration in mol/L.

*Q* Dear colleague, I am looking for the recorded pKd of the following compound: CCOC(=O)c1sc(NC(=O)/C(=N/Nc2ccc(O)cc2C(=O)O)C(C)=O)nc1C
*A* 4.63

*Q* Dear colleague, I am looking for the recorded pKd of the following compound: CCOC(=O)c1sc(NC(=O)/C(=N/Nc2ccccc2C(=O)O)C(C)=O)nc1C
*A* 4.46

*Q* Dear colleague, I am looking for the recorded pKd of the following compound: CCOC(=O)c1sc(NC(=O)C(=NNc2cccc(C(=O)O)c2)C(C)=O)nc1C
*A* 4.47

*Q* Dear colleague, I am looking for the recorded pKd of the following compound: CC(=O)C(=NNc1ccccc1C(=O)O)C(=O)Nc1nc(C)c(C(=O)O)s1
*A* 3.68

*Q* Dear colleague, I am looking for the recorded pKd of the following compound: CC(=O)C(=NNc1ccccc1C(=O)O)C(=O)Nc1nccs1
*A* 4.47

*Q* Dear colleague, I am looking for the recorded pKd of the following compound: CC(=O)/C(=N\Nc1ccccc1C(=O)O)C(=O)Nc1ccccn1
*A* 4.47

*Q* Dear colleague, I am looking for the recorded pKd of the following compound: CCOC(=O)c1sc(NC(=O)C(=NNc2ccc(C(=O)O)cc2)C(C)=O)nc1C
*A* 4.42

----------
Below is a list of entries, each paired with its recorded Kd value.
Biological target: sRANKL (Rattus norvegicus, UniProt Q9ESE2, D175N)
Construct: (1) sRANKL (rat 159-318 aa); His6-sumo (N, cleaved yes); made in house; host or cells: Escherichia coli BL21 (DE3)
Assay: Isothermal titration calorimetry (ITC) with sRANKL
Type: binding
Conditions: 25 °C, PBS 0.8% DMSO
The reply should be a number in µM, with the unit left off.

{"columns": ["STRUCTURE_SMILES_STRING", "Kd, µM"],
 "data": [
  ["CC(=O)/C(=N\\Nc1ccccc1C(=O)O)C(=O)Nc1ccccn1", 5.78]
]}

*Q* Dear colleague, I am looking for the recorded Kd of the following compound: CCOC(=O)c1sc(NC(=O)/C(=N/Nc2ccc(O)cc2C(=O)O)C(C)=O)nc1C
*A* 6.58
